System: HOP-92 NSCLC
Measurement Protocol: NCI-60 one-dose screen, 48 h (100 = growth as untreated, 0 = no growth, -100 = all killed)
Conditions: 10 µM unless noted
The panel holds about 83,000 compounds, 20% with a hit somewhere; the sample as a whole holds those more often.
Give measured growth for each item. Keep answers brief.
Answers are plain numbers, in %.

Here's what some known entries look like.
{"Molecule": "CCCO/N=C/c1ccccn1", "Units Text": "%", "growth": 105}
{"Molecule": "[2H]C([2H])([2H])Oc1cc(F)ccc1/C=C/C(=O)/C=C(/C=C/c1ccc(F)cc1OC([2H])([2H])[2H])OB(F)F", "Units Text": "%", "growth": 83.2}
{"Molecule": "CCCCCCCCn1ccc2cc(NC(=O)CN3CCN(c4nc(C)cc(N5CCCCC5)n4)CC3)ccc21", "Units Text": "%", "growth": 102}
{"Molecule": "CCOC(=O)c1nc2c3ccccc3cnn2c1C(=O)c1ccc(OC)cc1", "Units Text": "%", "growth": 86.5}
{"Molecule": "O=C(Nc1ncc(Cc2cccc(C(F)(F)F)c2)s1)c1ccc(-n2cnnn2)cc1", "Units Text": "%", "growth": 86.2}
{"Molecule": "Cc1ccc(-c2nc3nc(-c4ccc(F)cc4)nc(N4CCCNCC4)c3o2)cc1", "Units Text": "%", "growth": -57.6}

Items follow; give growth for each.
1. Cc1ccc(S(=O)(=O)OC[C@@]2(C)CC[C@]3(C)CC[C@]4(C)C(=C3C2)C=C[C@@H]2[C@@]3(C)CCCNC(C)(C)[C@@H]3CC[C@]24C)cc1
2. CCOC(=O)CCCn1c(-c2ccccc2)cc(-c2ccccc2)c(C#N)c1=O
3. COc1ccc(C/C(C)=C(/c2ccc(OCCN3CCCC3)cc2)c2ccc(OC(=O)NCc3ccccc3)cc2)cc1
4. C=C1CCC2C3(C)COC(c4ccc(NC(C)=O)cc4)OC3CCC2(C)C1C/C=C1/C(=O)OCC1O (stereo unspecified)

28.6
48.3
66.2
72.6

The following molecules each have a reported value; give each one's growth.
1. O=C(Cc1ccc(F)cc1)c1ccccc1
2. CON1CCC[C@]2(C)[C@H]3CC[C@@H]4[C@H]5[C@@H](O)C(C)(C)CC[C@]5(CO)CC[C@@]4(C)[C@]3(C)CC[C@H]2C1(C)C
3. COc1ccc(Oc2nc(Nc3ccc(N4CCOCC4)cc3)ncc2NC(=O)c2cccc(C(F)(F)F)c2)cc1

1: 89.7; 2: 116; 3: 76.7

====

Tested on: K-562 leukemia
Measurement Protocol: NCI-60 one-dose screen, 48 h
Conditions: 10 µM unless noted
This is part of a sample that, as a whole, favours compounds with a hit. Of some 83,000 tested, about 20% had one in any assay. Active and inactive are the calls of the source. How the source made its calls: active means growth percent below 10; inactive means the rest.
In this exercise, the only acceptable responses are label 1 for active, label 0 for inactive

See these solved cases before continuing.
{"Compound": "O=S(=O)(Nc1cc(Sc2cccc3cccnc23)c(O)c2ccccc12)c1ccc(F)cc1", "Tested Target": "K-562 leukemia", "Discrete Label": "label 1"}
{"Compound": "Cc1ccccc1SSc1ccccc1C", "Tested Target": "K-562 leukemia", "Discrete Label": "label 0"}
{"Compound": "Cc1cc2nc(C(Cl)Cl)nc(-c3ccc(Cl)cc3)n2n1", "Tested Target": "K-562 leukemia", "Discrete Label": "label 0"}
{"Compound": "C=C(CNCCO)[C@@H]1CC[C@]2(CO)CC[C@]3(C)[C@H](CC[C@@H]4[C@@]5(C)CCC(NCCc6ccc(O)cc6)C(C)(C)[C@@H]5CC[C@]43C)[C@@H]12 (stereo partly drawn)", "Tested Target": "K-562 leukemia", "Discrete Label": "label 1"}
{"Compound": "COc1ccc(C/C(C)=C(\\c2ccc(O)cc2)c2ccc(OCCCN(C)C)cc2)cc1", "Tested Target": "K-562 leukemia", "Discrete Label": "label 0"}

Turning to the following compound.
In this assay, the call recorded for `CC(=NCc1ccccc1)c1ccc(O)cc1O` was what?
label 0

====

Test system: NCI-H226 lung
Measurement Protocol: NCI-60 one-dose screen, 48 h (100 = growth as untreated, 0 = no growth, -100 = all killed)
Conditions: 10 µM unless noted
Method: Growth inhibition of the NCI-H226 human Non-Small Cell Lung tumor cell line is measured as a screen for anti-cancer activity. Cells are grown in 96 well plates and exposed to the test compound for 48 hours. Compounds are tested at a single concentration, which is 10^-5 M for most compounds. The reported endpoint is percent growth (GI% or GIPRCNT), where numbers from 0 - 100% represent growth inhibition, and numbers from -100% - 0 represent cell death. […]
The panel holds about 83,000 compounds, 20% with a hit somewhere; the sample as a whole holds those more often. Activity calls are given as the source filed them. How the source made its calls: active means growth percent below 10; inactive means the rest.
Please respond with reported growth for every item in the list.

{"Molecule": "COc1ccc(C/C(C)=C(/c2ccc(OCCN3CCCC3)cc2)c2ccc(OC(=O)NCc3ccccc3)cc2)cc1", "growth": "102% (inactive)"}
{"Molecule": "COc1ccc(-c2ccccc2)cc1-c1c(Nc2cc(Cl)cc(Cl)c2O)c(=O)c1=O", "growth": "19.3% (inactive)"}
{"Molecule": "C#CCOc1cccc(Nc2ncc3ncn(C4CCN(C(=O)CCl)C4)c3n2)c1 (stereo not given)", "growth": "23.3% [6.25 µM] (inactive)"}
{"Molecule": "Cc1ccc(-c2nc([P+](c3ccccc3)(c3ccccc3)c3ccccc3)c(Nc3ccccc3)o2)cc1", "growth": "20.2% (inactive)"}

Please give growth, item by item, for the list that follows.
1. CONC1=Nc2cc(NC(N)=NCc3ccccc3)c(N(C)C3CCCCC3)cc2OC1
2. Cn1cc2c(=O)nc3c(-c4nc5ccccc5[nH]4)n[nH]n3c2n1
3. CC/C(=C(/c1ccc(O)cc1)c1ccc(OCCN2CCCCCC2)cc1)c1ccc(Cl)cc1
4. COc1cc(-c2nn(-c3cccc(NC(=O)CCN4CCN(C)CC4)c3)cc2-c2ccncc2)ccc1Cl
5. CC1(C)C(N)=Nc2cc(OCCCN3Cc4ccc(OCCc5cn(CC(=O)N6CCC(CCN7CCCC7)CC6)nn5)cc4C3)c(OCC3CC3)cc21

1. 67.3% (inactive)
2. 96.4% (inactive)
3. 89.2% (inactive)
4. 67.7% (inactive)
5. 108% (inactive)

# assay system NCI-H226 lung: give growth of `COc1ccc(C/C(C)=C(/c2ccc(OCCN3CCCCCC3)cc2)c2ccc(OC(=O)c3ccccc3)cc2)cc1`
110% (inactive)

====

System: UACC-257 melanoma
Measurement Protocol: NCI-60 one-dose screen, 48 h
Conditions: 10 µM unless noted
The panel holds about 83,000 compounds, 20% with a hit somewhere; the sample as a whole holds those more often. The source made the active and inactive calls. The calls were made as follows: active = growth percent below 10; inactive = the rest.
Response enum: t (active), f (inactive)

Recorded results for 6 compounds are shown here.
{"Compound": "C=C(C)[C@@H]1CC[C@]2(C)[C@H](CC(=O)N[C@H]3[C@@H]4C[C@](C)(C(=O)OC)CC[C@]4(C)CC[C@]32C)[C@@]1(C)CCC#N", "Discrete Label": "f"}
{"Compound": "COc1ccccc1/C=C1\\COc2ccc(O)cc2C1=O", "Discrete Label": "f"}
{"Compound": "CCOC(=O)c1nnn(Cc2cc(=O)oc3c2ccc2ccccc23)c1C", "Discrete Label": "f"}
{"Compound": "O=C(/C=C\\c1ccc(Cl)c(Cl)c1)c1ccccc1", "Discrete Label": "f"}
{"Compound": "O=C(/C=C/c1cccs1)Nc1ncc(Cc2ccc(Cl)c(Cl)c2)s1", "Discrete Label": "f"}
{"Compound": "CCCCC1=C(Br)C(=O)c2nc(C)ccc2C1=O", "Discrete Label": "f"}

Hello, I am checking results. What call was entered for `Cc1ccc(C(=O)c2ccc(CC(=O)N=Nc3c(O)[nH]c4ccc(OC(F)(F)F)cc34)n2C)cc1` ?
f

# fetch the recorded call for `O=C(N/N=C/c1ccc(O)cc1O)c1cccc(Nc2ccnc(C(F)(F)F)c2)c1` here
f

Assay outcome for N#CC(Cc1cccc2ccccc12)c1cc2ccccc2[nH]1 (stereo unspecified) : what was it?
f

Fill in: this test's call for C=C1CC[C@@H]2[C@](C)(COC(C)=O)[C@H](OC(C)=O)CC[C@@]2(C)[C@@H]1CC(Nc1ccc(S(=O)(=O)Nc2nccs2)cc1)C1=CCOC1=O (stereo partly specified) is ___
f

Just curious, what result did `O=C1/C(=C/c2cn(-c3ccccc3)nc2-c2ccccc2)SC(=S)N1c1ccc(Cl)cc1` get here?
f

Per the records of this test, what outcome belongs to `C#CCn1cnc2cnc(Nc3cccc(NC(=O)CCl)c3)nc21` ?
t

# fetch the recorded call for `COc1ccc(Nc2nn3c(SCC(=O)c4ccc(C)cc4)nnc3s2)cc1` here
f

Which result was noted for this compound in the test: `C=C1C(=O)O[C@H]2[C@H]1CC/C(CNS(=O)(=O)c1ccc3ccccc3c1)=C\CC[C@@]1(C)O[C@@H]21`
t

// outcome(item) with item = `CCOC(=O)c1c(-c2ccc(OC)cc2)c(C#N)c2c(C#N)c(N)nn2c1N`
f

Would you mind telling me which call this test gave `O=C(CCl)N(O)c1ccc(/C=C/c2ccccc2)cc1` ?
f

Per the records of this test, what outcome belongs to `CCN1CCN(CC(=O)Nc2nc3ccc(NCc4ccc(C)cc4)cc3s2)CC1` ?
f

I'd appreciate the recorded outcome for N=C1/C(=C2\NC3C=CC=CC3S2)C(c2ccc(Cl)cc2)C2C(=O)N(c3ccccc3)C(=S)N12 (stereo unspecified) from this test.
f

# outcome recorded in this test, key = C=C1CCC2C3(C)COC(c4ccc(NC(C)=O)cc4)OC3CCC2(C)C1C/C=C1/C(=O)OCC1O (stereo unspecified)
f

Which outcome was entered for the compound `O=C1c2cccc3cccc(c23)C(=O)N1N1C(=O)c2cccc3c(N4CCNCC4)ccc(c23)C1=O` in this test?
f

What outcome does the record of this test show for `COC(=O)c1nc(-c2ccc(C)cc2)oc1Sc1ccc(C)cc1` ?
f
